Each recorded value in this set is attributed to patent US5424205A.

The molecules listed here are annotated with their cleavage of p-NA substrate by amyloidin (increase in A405).
Target: amyloidin (Homo sapiens, UniProt P52888)
Construct: from tissue; a purification from blood is also described
Sequence (P52888 whole entry): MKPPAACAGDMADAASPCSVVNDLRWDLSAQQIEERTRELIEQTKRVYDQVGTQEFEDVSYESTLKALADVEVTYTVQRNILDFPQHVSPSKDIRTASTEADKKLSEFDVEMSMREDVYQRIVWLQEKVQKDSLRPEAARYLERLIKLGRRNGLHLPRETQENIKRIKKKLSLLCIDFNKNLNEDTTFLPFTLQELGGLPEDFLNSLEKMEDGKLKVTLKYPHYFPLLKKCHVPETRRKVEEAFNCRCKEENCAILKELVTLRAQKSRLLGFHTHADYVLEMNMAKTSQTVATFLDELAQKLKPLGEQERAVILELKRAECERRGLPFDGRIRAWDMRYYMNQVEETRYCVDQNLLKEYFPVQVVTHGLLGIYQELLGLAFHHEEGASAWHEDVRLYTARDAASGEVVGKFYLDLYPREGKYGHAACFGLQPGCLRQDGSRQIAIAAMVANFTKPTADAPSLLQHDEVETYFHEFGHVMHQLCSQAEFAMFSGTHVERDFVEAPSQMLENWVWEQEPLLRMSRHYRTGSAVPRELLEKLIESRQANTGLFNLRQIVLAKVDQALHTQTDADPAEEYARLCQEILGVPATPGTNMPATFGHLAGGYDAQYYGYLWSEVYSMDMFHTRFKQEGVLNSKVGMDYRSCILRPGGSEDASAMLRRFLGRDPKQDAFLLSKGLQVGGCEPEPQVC
Assay: Cleavage of short peptide para-nitroanilide substrates by amyloidin (A405)
Assay type: biochemical
Conditions: pH 7.5; up to 2 hours
Starred links: 1 amine or outer side, 2 acyl side, 3 side chain; linkers in the order of their positions; H or OH if unused. Residues, ends and D or L forms follow the SMILES beside them. *: point of attachment. pNA = O=[N+]([O-])c1ccc(N*)cc1; Suc = O=C(CCC(=O)[*:2])[*:1]
measurementKind: cleavage of p-NA substrate by amyloidin (increase in A405)

>>> assayvalue("CSCC[C@H](NC(=O)[C@H](CCCCN)NC(=O)[C@@H](NC(=O)[C@H](CCC(=O)O)NC(C)=O)C(C)C)C(=O)Nc1ccc([N+](=O)[O-])cc1 [Ac-EVKM-PNA, acetylglutamyl-valyl-lysyl-methinyl-pNA] (Ac-EVKM-pNA)")
0
>>> assayvalue("CC(=O)N[C@@H](C)C(=O)N[C@@H](CC(=O)O)C(=O)Nc1ccc([N+](=O)[O-])cc1 [Ac-AD-pNA, Acetylalanyl-aspartyl-] (Ac-Ala-Asp-pNA)")
0
>>> assayvalue("C[C@H](NC(=O)CCC(=O)O)C(=O)N[C@@H](C)C(=O)N1CCC[C@H]1C(=O)N[C@@H](Cc1ccccc1)C(=O)Nc1ccc([N+](=O)[O-])cc1 [Suc-AAPF-pNA] (Suc-AAPF-pNA)")
0

====

Target: amyloidin (Homo sapiens)
Construct: from tissue; a purification from blood is also described
Test: Inhibition of amyloidin by various inhibitors (APP592-601 peptide cleavage)
Format: biochemical
Details: in words
Residues, ends and D or L forms follow the SMILES beside them.
measurementKind: inhibitory effect on amyloidin

>>> assayvalue("CC(C)C[C@H](NP(=O)(O)O[C@@H]1O[C@@H](C)[C@H](O)[C@@H](O)[C@H]1O)C(=O)N[C@@H](Cc1c[nH]c2ccccc12)C(=O)O")
"only weakly inhibitory"
>>> assayvalue("CC(C)C[C@H](NC(=O)[C@H]1O[C@@H]1C(=O)O)C(=O)NCCCCN=C(N)N")
"no inhibitory effect"
>>> assayvalue("CSCC[C@@H](C=O)NC(=O)[C@H](CC(C)C)NC(=O)[C@H](CC(C)C)NC(C)=O [Calp. Inh. II] (Ac-Leu-Leu-Met-aldehyde)")
"no inhibitory effect"
>>> assayvalue("c1cnc2c(c1)ccc1cccnc12")
"only weakly inhibitory"
